TGI values for the compounds below.
Test system: MDA-MB-435
Assay Explanation: NCI tumour cell line growth inhibition, 48 h
Metric: TGI

> print(dat)
                                   compound  system.name  measurement
1  COC(=O)CC1c2ccccc2N2C(=O)Cc3c([nH]c4ccccc34)C12 (stereo unspecified)   MDA-MB-435     > 100 µM
2   O=C(N/N=C/c1ccccc1)c1cccc2nc3ccccc3nc12   MDA-MB-435     > 100 µM
3  CCSc1nc(SCC)c2c(-c3ccc(OC)c(OC)c3)c(C#N)c(SCC)nc2n1   MDA-MB-435      57.8 µM
4              OCCn1cnc2c(SCc3ccccc3)ncnc21   MDA-MB-435     > 100 µM
5  NC(=O)c1ccc(-c2nc(-c3ccc4c(c3)OCO4)c(-c3ccccn3)[nH]2)cc1   MDA-MB-435     > 100 µM
6       O=CN1CCN(C(=O)c2ccc(Cl)c(Cl)c2)C1=S   MDA-MB-435      31.8 µM

====

Tested on: 786-0 renal
Assay Explanation: NCI tumour cell line growth inhibition, 48 h
Form field: TGI (one value per entry).
Metric: TGI

> print(dat)
                                    compound  metric  measurement
 1  Cc1[nH]c2ccc(F)cc2c1-c1nc2c3cccnc3c3ncccc3c2[nH]1     TGI     > 100 µM
 2            Cc1n(Cc2ccccc2)nc2sc(N)n[n+]12     TGI     > 100 µM
 3  CC(=O)OC(Cc1c(O)c2c(C)cccc2oc1=O)C(C)(C)O (stereo unspecified)     TGI     > 100 µM
 4     COc1ccc(CC2(Cc3ccc(OC)cc3)CCOC2=O)cc1     TGI     > 100 µM
 5  COc1ccc2nc3cc(Cl)ccc3c(SCC(=O)Nc3ccccc3-c3ccccc3NC(=O)CSc3c4ccc(Cl)cc4nc4ccc(OC)cc34)c2c1     TGI     > 100 µM
 6  CCCCCCCCCCCCCCCCCCOCC(O)COP(=O)(O)OCC1OC(n2ccc(N)nc2=O)C(O)C1O (stereo unspecified)     TGI      26.5 µM
 7            COc1ccc(CC(=O)c2ccc(O)cc2O)cc1     TGI     > 100 µM
 8  Nc1c(C(=O)c2cccc(C#CCO)c2)cnn1-c1ccc(F)cc1     TGI      > 25 µM
 9  COc1cccc(C2c3cc4c(cc3OC(Nc3ccccc3)C2C)OCO4)c1OC (stereo unspecified)     TGI      22.9 µM
10  Cc1ccc(-c2csc(NC(=O)N3CCN(c4cc5c(cc4F)c(=O)c(C(=O)O)cn5C4CC4)CC3)n2)cc1     TGI      37.5 µM
11   Cc1cnc2[nH]c(-c3ccc4ccccc4c3)cc(=O)c2c1     TGI     > 100 µM

====

Tested on: A498 renal
Assay Explanation: NCI tumour cell line growth inhibition, 48 h
fulfilled means recorded TGI is 50 µM or above; not fulfilled means it is below 50 µM.

> print(dat)
                                    molecule   answer.label
 1  CN1CC2CN(Cc3ccccc3)CCN2c2cccnc21 (configuration not stated)      fulfilled
 2      NCCN.O=C([O-])CN1CCOCC1.[OH-].[Pt+4]      fulfilled
 3  Cn1cc(-c2csc(-c3cn(C)c4ccccc34)n2)c2ccccc21  not fulfilled
 4  O=[N+]([O-])c1ccc(NNN=Nc2ccc(-c3nc4ccccc4s3)cc2)c([N+](=O)[O-])c1  not fulfilled
 5  O=C(Nc1ccc(Oc2cccc(F)c2)c(Cl)c1)c1cnccn1  not fulfilled
 6  CC[C@H](CO)Nc1nc(NCc2ccccc2)c2ncn(C(C)C)c2n1      fulfilled
 7                    c1ccc([I+]c2ccccc2)cc1      fulfilled
 8  CC(C)(C)c1[nH]nc2c1C(c1cc3ccccc3[nH]c1=O)Nc1cc(C(=O)OCc3ccccc3)ccc1N2 (configuration not stated)      fulfilled
 9        COC(=O)c1cc2ccccc2c2c3c(ccc12)OCO3      fulfilled
10  CCOc1ccc(NC(=O)C(=O)C(C(=O)c2ccc3ccccc3c2)C2OC(=O)c3ccccc32)cc1 (configuration not stated)  not fulfilled
11  CCN1CN(c2ccccc2)C2(CCN(CC(CC3OCCO3)c3ccc(F)cc3)CC2)C1=O (configuration not stated)  not fulfilled
12  O=S(=O)(/C=C/CS(=O)(=O)c1ccccc1)c1ccccc1      fulfilled
13  O=C1NOC(c2ccc(O)cc2)(c2ccc(O)cc2)c2ccccc21      fulfilled
14  Cc1[nH]c(=O)nc(Nc2ccc(Cl)cc2)c1C(=O)N1CCN(CCO)CC1      fulfilled
15  N#Cc1nc2c(S(=O)(=O)c3ccc(Cl)cc3)c(N)n(CCCN3CCOCC3)c2nc1C#N  not fulfilled
16  CCOC1CC(C)N(C(=O)c2ccccc2)O1 (configuration not stated)      fulfilled
17             BrCC[N+]12CC[N+](CCBr)(CC1)C2      fulfilled
18            NC(=O)NC12CC3CC(CC(F)(C3)C1)C2      fulfilled
19  Cc1nn(-c2ccc(Cl)cc2)c2nc3c(nc12)C(=O)C(=O)c1ccccc1-3  not fulfilled
20  Cn1c(N)nc(-c2ccc(Cl)cc2)c1SSc1c(-c2ccc(Cl)cc2)nc(N)n1C  not fulfilled
21  CC1=CC2c3cccc4[nH]cc(c34)CC2N(C)C1 (configuration not stated)      fulfilled
22  Cn1cccc1-c1cc(-c2ccc(Br)cc2)[nH]c(=O)c1C#N      fulfilled

====

The reader will find reported GI50 values listed item by item below.
Tested on: NCI/ADR-RES ovarian
Assay Explanation: NCI tumour cell line growth inhibition, 48 h
Metric: GI50

> print(dat)
                                    compound  measurement
 1  CC(C)CCNCC(O)Cn1c2ccccc2c2ccccc21 (stereo not given)      14.2 µM
 2  CCOC(=O)C1CCCCN1C(=O)c1ccc(Nc2cnc3cc(C(F)(F)F)ccc3n2)cc1 (stereo not given)      14.1 µM
 3  COC(=N)c1c(N)[n+]([O-])c2ccc(F)cc2[n+]1[O-]     > 100 µM
 4  COc1cc(/C=C/C(=O)c2ccc(F)cc2)ccc1OCCCN1CCN(CC(=O)Nc2ccc(Cl)cc2C(=O)c2ccccc2Cl)CC1        13 µM
 5  CN(C)CC1CCC2=C(C1=O)C(c1ccc(Cl)c(Cl)c1)C1=C(CCC(CN(C)C)C1=O)O2 (stereo not given)      19.4 µM
 6  CCSc1nc(SCC)c2c(-c3ccc(OC)c(OC)c3)c(C#N)c(SCC)nc2n1      14.4 µM
 7  O=C1NOC(c2ccc(O)cc2)(c2ccc(O)cc2)c2ccccc21     > 100 µM
 8  O=c1c(O)c(-c2ccc(O)c(O)c2)oc2cc(O)cc(O)c12      12.8 µM
 9           Nc1ccccc1C#C/C=C\C#Cc1cccc(O)c1      2.39 µM
10  C[C@]12CC[C@@H]3c4ccc(O)cc4CC[C@H]3[C@@H]1Cc1cnc(N)nc12      17.7 µM

====

The following compounds are listed with their measured TGI values.
Tested on: KM12 colon
Assay Explanation: NCI tumour cell line growth inhibition, 48 h
Metric: TGI

> print(dat)
                                    compound  measurement
 1  ClCCCCCc1c2nc(c(CCCCCCl)c3ccc([nH]3)c(CCCCCCl)c3ccc([nH]3)c(CCCCCCl)c3nc1C=C3)C=C2     > 100 µM
 2  Cc1ccc(-c2csc(NC(=O)N3CCN(c4cc5c(cc4F)c(=O)c(C(=O)O)cn5C4CC4)CC3)n2)cc1     > 100 µM
 3    CCOC(=O)c1c(NC(=S)Nc2ccccc2)sc2c1CCOC2     > 100 µM
 4                   CCn1cnnc1-c1nsc2ccccc12     > 100 µM
 5  O=C(O)C(CS)NCc1c2ccccc2nc2ccccc12 (stereo not given)     > 100 µM
 6         Nc1nc(-c2ccco2)cc(-c2ccc(CO)o2)n1     > 100 µM
 7  CCN1CN(c2ccccc2)C2(CCN(CC(CC3OCCO3)c3ccc(F)cc3)CC2)C1=O (stereo not given)      17.5 µM
 8  ON=C(CC(O)(C(F)(F)Cl)C(F)(F)Cl)CC(O)(C(F)(F)Cl)C(F)(F)Cl      > 10 µM
 9                Oc1c(Cl)c(Cl)c(O)c2c1CCCC2      30.2 µM
10    COc1ccc(NC(=S)c2ccoc2C)cc1CC(=O)OC(C)C     > 100 µM

These data points were gathered from PubChem BioAssay (NCI).
